target: human kappa-opioid receptor (KOR) (Homo sapiens, UniProt P41145)
Property Measured: Ki (nM)
Answers are plain numbers, in nM.

Data request: Tell me the measured Ki of `Cc1c(NC(=O)c2ccc(Cl)cc2)cc(-c2ccccc2)n1CCCN1CCOCC1` , please.
Data returned: 1350
